Attribution: PubChem BioAssay AID488890

TEST METHOD NOTES: growth inhibition of non-replicating M. tuberculosis (AID 488890);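 note: plate controls were DMSO cells for no effect and high antibiotic wells for full effect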
REPORTED CONDITIONS: Mycobacterium tuberculosis non-replicating, at 25 µM, stronger effect = higher value
Screen size: about 320,000 compounds; about 1,300 (0.41%) were called active. Inconclusive results (about 3%) are left out. Only a sample is shown. Results with a measured potency or affinity are listed apart.
READOUT NAME: inhibition (%)
Give the quantity in %, number only.

Below: 8 molecules and their reported inhibition.
Cc1ccc(NC(=O)C2CCCN2C(=O)Oc2ccccc2)c(C)c1 (stereo not given) ... -3.45
Cc1ccc(-c2ccc(SCC(=O)N3CCc4ccccc43)nn2)cc1 ... -0.83
Cc1c([N+](=O)[O-])c([N+](=O)[O-])nn1CC(=O)N1CCOCC1 ... 1.03
CCOc1c(C(N)=O)cc([N+](=O)[O-])cc1[N+](=O)[O-] ... 7.1
COc1ccc(C(=O)N/N=C/c2cccnc2)cc1 ... -12.5
CCOC(=O)c1c(C)nn(-c2ncccc2NC(=O)NC(C)C)c1C ... -15.3
O=C(CSc1n[nH]c(=O)n1-c1cccnc1)Nc1ccccc1Cl ... -0.8
Cc1cccc2cc(/C=N/NC(=O)c3ccccc3O)c(Cl)nc12 ... -1.47

// inhibition lookup, key: CCC(CO)NCc1sccc1C (stereo not given)
-5.31

Which inhibition is reported for this molecule? `COc1ccc(CCNC(=O)c2cc3cccc(OC)c3oc2=O)cc1OC`
0.35

----------
TEST METHOD NOTES: growth inhibition of non-replicating M. tuberculosis (AID 488890);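 note: plate controls were DMSO cells for no effect and high antibiotic wells for full effect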
REPORTED CONDITIONS: Mycobacterium tuberculosis non-replicating, at 25 µM, stronger effect = higher value
About 1,300 (0.41%) of roughly 320,000 compounds were called active. About 3% were inconclusive and are not listed. These entries were drawn from the full list. Entries with a potency or affinity are not part of this list.
inhibition for assorted compounds
Please state the figure in %; there is no need to write the unit.

CCNC(=S)NNC(=O)c1ccncc1 ... 65.4
O=C(O)c1ccccc1C(=O)Nc1ccc(S(=O)(=O)NC2CCCCC2)cc1 ... -4.02
COc1ccccc1-c1cc(C(F)(F)F)nc(NCc2cccs2)n1 ... 13.2
COc1ccc(OC)c(NC(=O)c2nc3ccccc3s2)c1 ... -0.73
CN(CC(=O)NCc1cccnc1)S(=O)(=O)c1ccc(F)cc1 ... -7.08

Param item = `CCOC(=O)C1CCN(C(=O)c2ccc3c(=O)n4c(nc3c2)CCCCC4)CC1` ; retrieve measured inhibition.
-14.7

Data request, read-out inhibition, for `O=C(NCCN1CCOCC1)C1CCN(S(=O)(=O)N2CCCCC2)CC1`
-2.95

Which inhibition value is on record for N#Cc1ccsc1NC(=O)C1CC(=O)N(Cc2ccccc2)C1 (stereo not drawn) ?
50.7

Returns the measured inhibition for the input compound. Input: `CCn1nc(-c2ccccc2)nc2c(=O)n(C)c(=O)nc1-2`
-28.8

Recorded inhibition for `O=c1oc2c(O)cccc2cc1-c1nc2ccccc2[nH]1` , please?
7.2

I am curious: what inhibition value has been reported for `CCOC(=O)/C(=N\Nc1ccccc1Cl)N1CCN(c2ccccc2OC)CC1` ?
19

Look up inhibition for this compound: `COc1ccc(NC(=O)Nc2nc3ccccc3s2)cc1`
-4.36

May I ask what inhibition has been recorded for `CCOC(=O)c1c(NC(=O)CN2CCOCC2)sc(C(=O)NC)c1C` ?
-15.7
